Data credit: patent US20190248902A1

Biological target: T1, human ASGR-1 (wild type) (human, UniProt P07306 1-291)
T1 construct: also called wt ASGR1; huASGR-1
T1 sequence: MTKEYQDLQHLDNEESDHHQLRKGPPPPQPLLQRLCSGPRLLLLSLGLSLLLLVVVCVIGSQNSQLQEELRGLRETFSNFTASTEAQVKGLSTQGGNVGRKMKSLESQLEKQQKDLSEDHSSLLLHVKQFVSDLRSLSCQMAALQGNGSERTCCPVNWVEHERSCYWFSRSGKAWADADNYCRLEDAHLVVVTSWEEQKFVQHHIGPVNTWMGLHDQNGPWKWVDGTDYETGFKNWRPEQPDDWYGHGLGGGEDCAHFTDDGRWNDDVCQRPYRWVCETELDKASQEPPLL
Experiment: flow cytometry, CHO-S:huASGR-1 cells, 11-point titration
measurement_type: pEC50
One number for each entry, as −log10 of the molar value.

Please review the following examples before continuing.
binder="176H4 (antibody, V domains shown, mAb) VH: QVQLVESGGGVVQPGRSLRLSCAASGFTFSSYGMHWVRQAPGKGLEWVAIIWYDGSYKYYADSVKGRFTISRDNSKNTLYLQMSSLRAEDTAVYYCARDAHDFWSGYFAYWGQGALVTVSS VL: DIVMTQTPLSLSVTPGQPASISCKSSQSLLHGDGKTYLYWYLQKPGQPPQLLIYEVSNRFSGVPDRFSGSGSGTDFTLKISRVEAEDVGIYYCMQSIQIPWTFGQGTRVEIK" value_measured=9.00
binder="194C10 (antibody, V domains shown, mAb) VH: QVQLQQWGAGLLKPSETLSLTCAVSGGSFRYYYWSWIRQPPGKGLEWFGEINHSGSTNYNPSLKSRVTISIDTSKNQFSLKLRSVTAADTAVYYCARDYGAFDIWGQGTMVTVSS VL: EIVLTQSPGTLSLSPGERATLSCRASPSVNSGYLAWYQQKPGQTPRLLIFGASSRATGIPDRFSASGSGADFTLTISRLEPEDFAVYFCQQYESSPWTFGQGTKVEIK" value_measured=9.25

Let us examine a further case.
Task item: Look up pEC50 for this binder: 202A3 (antibody, V domains shown, mAb) VH: QVQLEQSGAEVKKPGASVKVSCKASGYTFTSYDINWVRQATGQGLEWLGWMNPKRGNTGYAQKFQGRVTMTRNTSISTAHMELSSLRSEDTAVYYCARGRYSREDYYYYYDMDVWGQGTTVTVSS VL: DIQMSQSPSSLSASVGDRVTITCRASQGIRNDLGWYQQKPGKAPKRLICAASRLQSGVPSRFSGSGSGTEFTLTISSLQPEDFAIYYCLQHHDYPFTFGPGTKVDIK
Reply: 9.10
